- tested_on: human GST-RIPK1 (Homo sapiens)
- Sequence (Q13546 1-375 limits assumed): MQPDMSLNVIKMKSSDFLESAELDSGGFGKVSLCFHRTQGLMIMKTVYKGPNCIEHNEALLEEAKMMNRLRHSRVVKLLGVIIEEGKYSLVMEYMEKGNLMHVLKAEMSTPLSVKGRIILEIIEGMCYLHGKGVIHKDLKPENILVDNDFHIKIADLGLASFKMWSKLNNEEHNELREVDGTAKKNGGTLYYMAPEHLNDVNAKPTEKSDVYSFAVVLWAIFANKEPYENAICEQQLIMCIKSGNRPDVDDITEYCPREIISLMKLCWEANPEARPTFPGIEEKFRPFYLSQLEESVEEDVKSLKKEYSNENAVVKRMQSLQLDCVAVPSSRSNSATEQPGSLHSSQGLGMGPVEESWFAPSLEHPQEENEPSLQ
pIC50: −log10 of the molar value.
// label = satisfied if pIC50 is not less than 8, otherwise not satisfied

{"molecule": "O=C(Nc1cccc(C#Cc2cnc3cccnn23)c1)N1N=CCC1c1cccc(Cl)c1 (stereo not drawn) [Example 34, 2,2,2-trifluoroacetate]", "assigned_label": "not satisfied"}
{"molecule": "Cc1ccc(NC(=O)N2N=CCC2c2cccc(Cl)c2)cc1C#Cc1cnc2cccnn12 (stereo not drawn) [Example 14, 2,2,2-trifluoroacetate]", "assigned_label": "satisfied"}
{"molecule": "CS(=O)(=O)c1ccc(Nc2cccn3c(C#Cc4cccc(NC(=O)N5N=CCC5c5ccccc5)c4)cnc23)cc1 (stereo not drawn) [Example 65, 2,2,2-trifluoroacetate]", "assigned_label": "not satisfied"}
{"molecule": "Cc1ccc(NC(=O)N2N=CC[C@@H]2c2ccc(F)cc2)cc1C#Cc1cnc2cccnn12 [Example 13, 2,2,2-trifluoroacetate]", "assigned_label": "not satisfied"}
{"molecule": "O=C(Nc1ccc(F)c(C#Cc2cnc3cccnn23)c1)N1N=CCC1c1ccccc1 (stereo not drawn) [Example 44, 2,2,2-trifluoroacetate]", "assigned_label": "not satisfied"}
{"molecule": "Cc1ccc(NC(=O)N2N=CCC2c2ccccn2)cc1C#Cc1cnc2cccnn12 (stereo not drawn) [Example 17, 2,2,2-trifluoroacetate]", "assigned_label": "satisfied"}

---

- Tested on: human Jurkat T cells deficient in FADD
- method_summary: Cell protection effect under apoptosis-inducing condition (TNF-α)
- Format: cell-based
- condition_set: 40 ng of TNF-α, 50 hours, CellTiter-Glo, read-out: I2.I Cell EC50
pEC50: −log10 of the molar value. Where a name gives a salt, the structure may show the parent alone.
Where pEC50 equals or exceeds 7, the correct label is Met; where it does not, the label is Not met.

{"compound": "O=C(Nc1ccnc(C#Cc2cnc3cccnn23)c1)N1N=CC[C@H]1c1ccccc1 [Example 49, 2,2,2-trifluoroacetate]", "assigned_label": "Met"}
{"compound": "O=C(Nc1cccc(C#Cc2cnc3cccnn23)c1)N1N=CC[C@@H]1c1ccc(F)cc1 [Example 33, 2,2,2-trifluoroacetate]", "assigned_label": "Met"}
{"compound": "O=C(Nc1cccc(C#Cc2cnc3cccnn23)c1)N1N=CC[C@H]1c1ccccc1 [Example 20, hydrochloride]", "assigned_label": "Met"}
{"compound": "O=C(Nc1cccc(C#Cc2cnc3cccnn23)c1)N1N=CC[C@H]1c1cccc(F)c1 [Example 29, 2,2,2-trifluoroacetate]", "assigned_label": "Met"}
{"compound": "O=C(c1cccc(C#Cc2cnc3cccnn23)c1)N1N=CCC1c1ccccc1 (centres unmarked) [Example 53, 2,2,2-trifluoroacetate]", "assigned_label": "Not met"}
{"compound": "O=C(Nc1cccc(C#Cc2cnc3cccnn23)c1)N1N=CCC1c1ccccn1 (centres unmarked) [Example 37, 2,2,2-trifluoroacetate]", "assigned_label": "Met"}
{"compound": "Cc1ccc(NC(=O)N2N=CC[C@@H]2c2cc(F)cc(F)c2)cc1C#Cc1cnc2cccnn12 [Example 6, 2,2,2-trifluoroacetate]", "assigned_label": "Not met"}

---

EC50 values, listed per item
- Tested on: human Jurkat T cells deficient in FADD
- method_summary: Cell protection effect under apoptosis-inducing condition (TNF-α)
- Format: cell-based
- condition_set: 40 ng of TNF-α, 50 hours, CellTiter-Glo, read-out: I2.I Cell EC50

{"molecule": "O=C(Nc1cncc(C#Cc2cnc3cccnn23)c1)N1N=CCC1c1ccccc1 (stereo not shown) [Example 51, 2,2,2-trifluoroacetate]", "EC50 [nM]": 1.84}
{"molecule": "O=C(Nc1cccc(C#Cc2cnc3cccnn23)c1)N1N=CC[C@H]1c1ccc(F)cc1 [Example 32, 2,2,2-trifluoroacetate]", "EC50 [nM]": 0.63}
{"molecule": "O=C(Nc1cccn2c(C#Cc3cccc(NC(=O)N4N=CCC4c4ccccc4)c3)cnc12)C1CCC1 (stereo not shown) [Example 63, 2,2,2-trifluoroacetate]", "EC50 [nM]": 0.9}
{"molecule": "O=C(Nc1cccc(C#Cc2cnc3ccccn23)c1)N1N=CCC1c1ccccc1 (stereo not shown)", "EC50 [nM]": 1.6}

---

- tested_on: human GST-RIPK1 (Homo sapiens, UniProt Q13546)
- Sequence (Q13546 1-375 limits assumed): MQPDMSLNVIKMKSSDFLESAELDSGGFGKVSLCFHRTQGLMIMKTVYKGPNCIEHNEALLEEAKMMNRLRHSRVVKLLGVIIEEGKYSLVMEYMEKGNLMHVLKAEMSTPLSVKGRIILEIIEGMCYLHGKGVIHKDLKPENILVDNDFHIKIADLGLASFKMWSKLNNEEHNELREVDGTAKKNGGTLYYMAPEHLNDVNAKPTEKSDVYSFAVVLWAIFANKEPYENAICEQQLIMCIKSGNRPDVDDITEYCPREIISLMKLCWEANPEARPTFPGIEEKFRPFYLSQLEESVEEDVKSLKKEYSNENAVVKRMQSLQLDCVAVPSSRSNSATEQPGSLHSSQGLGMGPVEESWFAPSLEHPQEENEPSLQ
pIC50: −log10 of the molar value. Where a name gives a salt, the structure may show the parent alone.

{"molecule": "Cn1cc(Nc2cccn3c(C#Cc4cccc(NC(=O)N5N=CCC5c5ccccc5)c4)cnc23)cn1 (stereo not shown) [Example 67, 2,2,2-trifluoroacetate]", "sign": "=", "pIC50": 7.72}
{"molecule": "Nc1cccn2c(C#Cc3cccc(NC(=O)N4N=CCC4c4ccccc4)c3)cnc12 (stereo not shown) [Example 59, hydrochloride]", "sign": "=", "pIC50": 6.90}
{"molecule": "O=C(Nc1cc(C#Cc2cnc3cccnn23)ccc1F)N1N=CCC1c1ccccc1 (stereo not shown) [Example 47, 2,2,2-trifluoroacetate]", "sign": "=", "pIC50": 7.30}
{"molecule": "O=C(Nc1cccc(C#Cc2cnc3cccnn23)c1)N1N=CCC1c1cc(F)cc(F)c1 (stereo not shown) [Example 23, 2,2,2-trifluoroacetate]", "sign": "=", "pIC50": 7.49}
{"molecule": "O=C(Nc1ccc(F)c(C#Cc2cnc3cccnn23)c1)N1N=CC[C@H]1c1ccccc1 [Example 45, 2,2,2-trifluoroacetate]", "sign": "=", "pIC50": 8.06}
{"molecule": "O=C(Nc1ccnc(C#Cc2cnc3cccnn23)c1)N1N=CC[C@@H]1c1ccccc1 [Example 50, 2,2,2-trifluoroacetate]", "sign": "<", "pIC50": 6.00}
{"molecule": "O=C(Nc1cccc(C#Cc2cnc3cccnn23)c1)N1N=CC[C@@H]1c1ccccc1 [Example 21, hydrochloride]", "sign": "<", "pIC50": 6.00}
{"molecule": "O=C(Nc1cccc(C#Cc2cnc3cccnn23)c1)N1N=CCC1c1ccc2ccccc2c1 (stereo not shown) [Example 40]", "sign": "=", "pIC50": 7.72}
{"molecule": "O=C(Nc1cncc(C#Cc2cnc3cccnn23)c1)N1N=CCC1c1ccccc1 (stereo not shown) [Example 51, 2,2,2-trifluoroacetate]", "sign": "=", "pIC50": 8.91}
{"molecule": "O=C(Nc1ccnc(C#Cc2cnc3cccnn23)c1)N1N=CCC1c1ccccc1 (stereo not shown) [Example 48, 2,2,2-trifluoroacetate]", "sign": "=", "pIC50": 8.47}
{"molecule": "O=C(Nc1cccc(C#Cc2cnc3ccccn23)c1)N1N=CCC1c1ccccc1 (stereo not shown) [Example 55]", "sign": "=", "pIC50": 7.87}
{"molecule": "Cc1ccc(C(=O)N2N=CCC2c2ccccc2)cc1C#Cc1cnc2cccnn12 (stereo not shown) [Example 54, 2,2,2-trifluoroacetate]", "sign": "=", "pIC50": 7.49}
{"molecule": "O=C(Nc1cccc(C#Cc2cnc3cccnn23)c1)N1N=CCC1c1ccc2c(c1)OCO2 (stereo not shown) [Example 39, 2,2,2-trifluoroacetate]", "sign": "=", "pIC50": 8.31}
{"molecule": "CNC(=O)Nc1cccn2c(C#Cc3cccc(NC(=O)N4N=CCC4c4ccccc4)c3)cnc12 (stereo not shown) [Example 61, 2,2,2-trifluoroacetate]", "sign": "=", "pIC50": 7.01}
{"molecule": "Cc1cc(Nc2cccn3c(C#Cc4cccc(NC(=O)N5N=CCC5c5ccccc5)c4)cnc23)n[nH]1 (stereo not shown) [Example 66, 2,2,2-trifluoroacetate]", "sign": "=", "pIC50": 7.51}
{"molecule": "O=C(Nc1cccc(C#Cc2cnc3cccnn23)c1)N1N=CCC1c1cccnc1 (stereo not shown) [Example 36, 2,2,2-trifluoroacetate]", "sign": "=", "pIC50": 8.53}
{"molecule": "O=C(Nc1cccc(C#Cc2cnc3cccnn23)c1)N1N=CCC1c1ccccc1 (stereo not shown) [Example 19, 2,2,2-trifluoroacetate]", "sign": "=", "pIC50": 8.42}
{"molecule": "O=C(Nc1cccc(C#Cc2cnc3cccnn23)c1)N1N=CC[C@@H]1c1cccc(F)c1 [Example 30, 2,2,2-trifluoroacetate]", "sign": "=", "pIC50": 6.40}
{"molecule": "Cc1ccc(NC(=O)N2N=CCC2c2ccc(Cl)cc2)cc1C#Cc1cnc2cccnn12 (stereo not shown) [Example 15, 2,2,2-trifluoroacetate]", "sign": "=", "pIC50": 8.37}
{"molecule": "O=C(Nc1cccn2c(C#Cc3cccc(NC(=O)N4N=CCC4c4ccccc4)c3)cnc12)C1CCC1 (stereo not shown) [Example 63, 2,2,2-trifluoroacetate]", "sign": "=", "pIC50": 7.40}
{"molecule": "Cc1ccc(NC(=O)N2N=CCC2c2cccnc2)cc1C#Cc1cnc2cccnn12 (stereo not shown) [Example 16, 2,2,2-trifluoroacetate]", "sign": "=", "pIC50": 8.74}
{"molecule": "Cc1ccc(NC(=O)N2N=CCC2c2cc(F)cc(F)c2)cc1C#Cc1cnc2cccnn12 (stereo not shown) [Example 4, 2,2,2-trifluoroacetate]", "sign": "=", "pIC50": 8.11}
